Cited source for all entries: the supplement of paper PMC11451515

List of cell viability values.
system: SEM cells; assay: cell viability relative to DMSO control; higher = less cytotoxic; details: RPMI 5 mM glucose + 10% dialyzed FBS; 48 h; 0.0211 µM
# output: bare number, implied unit %

Examples with their reported cell viability follow.
compound	property measured	scale unit	result
COc1cc(O)c2c(c1)C1OC1C[C@H](O)[C@H](O)C(=O)/C=C\C[C@H](C)OC2=O (stereo partly drawn)	cell viability	%	127
CC(=O)OCC(=O)[C@@]12\N=C(C)/O[C@@H]1C[C@H]3[C@@H]4CCC/5=C/C(=O)/C=C\[C@]5(C)[C@H]4[C@@H](O)C[C@]23C	cell viability	%	106
CCCCCCCc1ccc(CCc2cccc(O)c2C(=O)O)cc1	cell viability	%	130
CNC1[C@@H](O)C(O[C@@H]2C(O)C(O[C@H]3O[C@H]([C@@H](C)NC)CC[C@H]3N)[C@@H](N)C[C@H]2N)OC[C@]1(C)O (stereo partly drawn)	cell viability	%	106

Asked: // lookup cell viability for NC1=NC=C(C=C1)C2=CC=C3N=CC\4=C(N(C(=O)\C=C4)C5=CC(=CC=C5)C(F)(F)F)C3=C2
Given back: 44.4

Asked: Returns the measured cell viability for the input compound. Input: O=C1Nc2ccc(Cl)cc2[C@@](C#CC2CC2)(C(F)(F)F)O1
Given back: 81.2

Asked: Look up cell viability for this compound: O=C(Nc1cccc(Nc2ncc(Br)c(NCCc3cnc[nH]3)n2)c1)N1CCCC1
Given back: 64.2

Asked: I would be grateful if you could share the reported cell viability for Cn1cc(-c2ccc3nnc(C(F)(F)c4ccc5ncccc5c4)n3n2)cn1 .
Given back: 102
